All figures here come from paper PMC7305236.

Please go through the items and note down their Supplementary Table 4: EC50 of β-arrestin-1 recruitment to DOR, U87 cells.
Molecular target: delta opioid receptor (DOR) (human) (UniProt P41143)
No end group written: not given here.

binder | test.result
YGGFQRRV-NH2 [adrenorphin-derived peptide YGGFQRRV] | > 10000 nM

Would you be so kind as to report Supplementary Table 4: EC50 of β-arrestin-1 recruitment to DOR, U87 cells for each listed record?
1. YGAFMRRV-NH2 [adrenorphin-derived peptide YGAFMRRV]
2. YGGFMRRQ-NH2 [adrenorphin-derived peptide YGGFMRRQ]
3. YAGFMRRV-NH2 [adrenorphin-derived peptide YAGFMRRV]
4. YGGFARRV-NH2 [adrenorphin-derived peptide YGGFARRV]

Result:
1580 nM
259 nM
2320 nM
> 10000 nM

Would you be so kind as to report Supplementary Table 4: EC50 of β-arrestin-1 recruitment to DOR, U87 cells for each listed record?
1. YGGFMRRL-NH2 [adrenorphin-derived peptide YGGFMRRL]
2. YGGFMRRI-NH2 [adrenorphin-derived peptide YGGFMRRI]

Result:
["254 nM", "320 nM"]

Reported Supplementary Table 4: EC50 of β-arrestin-1 recruitment to DOR, U87 cells for YGGFMRRA-NH2 [adrenorphin-derived peptide YGGFMRRA] was 260 nM
